# ASSAY NAME: Antioxidant assay, ORAC-FL method
# ASSAY CONTEXT: compound and Trolox at 8 μM, 37 °C, three independent experiments
READOUT NAME: ORAC index ± SEM (Trolox equivalents)
Note: unit Trolox equivalents is implicit; provide only the numeric part.

INSERT INTO assay_data (molecule, readout_name, assay_result) VALUES
  ('Cc1c(C)c2c(c(C)c1O)CCC(C)(C(=O)O)O2 (stereo not drawn) [Trolox, reference compound]', 'ORAC index ± SEM', 1),
  ('Cc1ncc(COCc2cn(Cc3ccc(Cl)cc3)nn2)c(CO)c1O', 'ORAC index ± SEM', 1.9697),
  ('COc1cc(Cn2cc(COCc3cnc(C)c(O)c3CO)nn2)cc(OC)c1', 'ORAC index ± SEM', 2.3425),
  ('Cc1ncc(COCc2cn(Cc3ccc(Cl)c(Cl)c3)nn2)c(CO)c1O', 'ORAC index ± SEM', 1.9421),
  ('Cc1ccccc1Cn1cc(COCc2cnc(C)c(O)c2CO)nn1', 'ORAC index ± SEM', 1.9723),
  ('Cc1ncc(COCc2cn(Cc3ccccc3)nn2)c(CO)c1O', 'ORAC index ± SEM', 1.0564),
  ('Cc1ncc(COCc2cn(Cc3ccc(C(F)(F)F)cc3)nn2)c(CO)c1O', 'ORAC index ± SEM', 2.0758),
  ('Cc1ncc(COCc2cn(Cc3ccccc3C(F)(F)F)nn2)c(CO)c1O', 'ORAC index ± SEM', 0.7168);

Any idea what its ORAC index ± SEM is? The molecule is Cc1ncc(COCc2cn(Cc3cccc(Cl)c3)nn2)c(CO)c1O
0.8358

Any idea what its ORAC index ± SEM is? The molecule is Cc1ccc(Cn2cc(COCc3cnc(C)c(O)c3CO)nn2)cc1
1.8428

Any idea what its ORAC index ± SEM is? The molecule is Cc1ncc(COCc2cn(Cc3ccc(Br)cc3)nn2)c(CO)c1O
1.215

* * *

# SUBJECT OF TEST: AChE from electric eel (EeAChE) (Electrophorus electricus, UniProt O42275)
# Sequence (O42275 24-633): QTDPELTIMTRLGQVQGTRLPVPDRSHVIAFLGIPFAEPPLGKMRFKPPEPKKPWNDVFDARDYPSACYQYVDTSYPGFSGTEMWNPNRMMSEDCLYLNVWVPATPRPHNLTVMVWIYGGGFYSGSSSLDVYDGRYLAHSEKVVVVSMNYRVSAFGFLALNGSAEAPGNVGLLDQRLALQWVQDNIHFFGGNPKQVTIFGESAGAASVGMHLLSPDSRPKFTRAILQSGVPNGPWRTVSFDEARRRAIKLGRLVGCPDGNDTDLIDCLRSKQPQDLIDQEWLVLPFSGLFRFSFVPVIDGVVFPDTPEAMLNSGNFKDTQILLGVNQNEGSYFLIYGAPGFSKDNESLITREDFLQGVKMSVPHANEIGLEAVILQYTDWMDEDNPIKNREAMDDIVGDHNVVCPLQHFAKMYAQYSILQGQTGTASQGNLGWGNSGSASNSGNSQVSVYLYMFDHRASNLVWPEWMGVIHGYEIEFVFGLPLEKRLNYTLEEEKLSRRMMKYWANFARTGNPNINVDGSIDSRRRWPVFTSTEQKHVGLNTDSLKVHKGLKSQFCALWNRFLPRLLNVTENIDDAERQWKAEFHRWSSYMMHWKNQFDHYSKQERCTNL
# ASSAY NAME: In vitro AChE inhibition, modified Ellman's method
# Format: biochemical
# ASSAY CONTEXT: read-out: % of AChE inhibition
The entries below come with measured inhibition at 5000 µM values attached.
Note: unit % is implicit; provide only the numeric part.

Observed inhibition at 5000 µM on AChE from electric eel (EeAChE) (Electrophorus electricus, UniProt O42275) for Cc1ncc(COCc2cn(Cc3cc(F)cc(F)c3)nn2)c(CO)c1O , please.
66.8

Observed inhibition at 5000 µM on AChE from electric eel (EeAChE) (Electrophorus electricus, UniProt O42275) for Cc1cccc(Cn2cc(COCc3cnc(C)c(O)c3CO)nn2)c1 , please.
73.4

* * *

# SUBJECT OF TEST: AChE from electric eel (EeAChE) (Electrophorus electricus, UniProt O42275)
# ASSAY NAME: In vitro AChE inhibition, modified Ellman's method
# Format: biochemical
# ASSAY CONTEXT: read-out: % of AChE inhibition
READOUT NAME: inhibition at 625 µM
Answers without a unit are incomplete; give the number and then its unit.

Some solved entries appear below for comparison.
INSERT INTO measurements (record_smiles, readout_name, assay_result) VALUES
  ('Cc1ccccc1Cn1cc(COCc2cnc(C)c(O)c2CO)nn1', 'inhibition at 625 µM', '51.1%'),
  ('Cc1ncc(COCc2cn(Cc3cccc(Br)c3)nn2)c(CO)c1O', 'inhibition at 625 µM', '42%'),
  ('Cc1cccc(Cn2cc(COCc3cnc(C)c(O)c3CO)nn2)c1', 'inhibition at 625 µM', '39.1%'),
  ('Cc1ncc(COCc2cn(Cc3cccc(F)c3)nn2)c(CO)c1O', 'inhibition at 625 µM', '35.1%'),
  ('Cc1ncc(COCc2cn(Cc3ccccc3C(F)(F)F)nn2)c(CO)c1O', 'inhibition at 625 µM', '39.1%');

Next:
Any idea what its inhibition at 625 µM is? The molecule is Cc1ncc(COCc2cn(Cc3cc(F)cc(F)c3)nn2)c(CO)c1O
35.4%

* * *

# SUBJECT OF TEST: AChE from electric eel (EeAChE) (Electrophorus electricus)
# ASSAY NAME: In vitro AChE inhibition, modified Ellman's method
# Assay type: biochemical
# ASSAY CONTEXT: read-out: % of AChE inhibition
READOUT NAME: inhibition at 156 µM (%)
Note: unit % is implicit; provide only the numeric part.

Some solved entries appear below for comparison.
INSERT INTO assay_data (record_smiles, uom, assay_result) VALUES
  ('Cc1ncc(COCc2cn(Cc3ccccc3C(F)(F)F)nn2)c(CO)c1O', '%', 22.5),
  ('Cc1cccc(Cn2cc(COCc3cnc(C)c(O)c3CO)nn2)c1', '%', 22.5),
  ('Cc1ncc(COCc2cn(Cc3cccc(Br)c3)nn2)c(CO)c1O', '%', 14.7),
  ('Cc1ccccc1Cn1cc(COCc2cnc(C)c(O)c2CO)nn1', '%', 33.5),
  ('Cc1ncc(COCc2cn(Cc3cccc(F)c3)nn2)c(CO)c1O', '%', 19);

Next:
Observed inhibition at 156 µM on AChE from electric eel (EeAChE) (Electrophorus electricus) for Cc1ncc(COCc2cn(Cc3cc(F)cc(F)c3)nn2)c(CO)c1O , please.
15

* * *

# SUBJECT OF TEST: AChE from electric eel (EeAChE) (Electrophorus electricus)
# ASSAY NAME: In vitro AChE inhibition, modified Ellman's method
# Assay type: biochemical
# ASSAY CONTEXT: read-out: % of AChE inhibition
READOUT NAME: inhibition at 10000 µM

Observed inhibition at 10000 µM on AChE from electric eel (EeAChE) (Electrophorus electricus) for Cc1ncc(COCc2cn(Cc3cccc(Br)c3)nn2)c(CO)c1O , please.
86.3%

Observed inhibition at 10000 µM on AChE from electric eel (EeAChE) (Electrophorus electricus) for Cc1ncc(COCc2cn(Cc3cccc(F)c3)nn2)c(CO)c1O , please.
69%

Observed inhibition at 10000 µM on AChE from electric eel (EeAChE) (Electrophorus electricus) for Cc1ncc(COCc2cn(Cc3ccccc3C(F)(F)F)nn2)c(CO)c1O , please.
81.9%

* * *

# SUBJECT OF TEST: AChE from electric eel (EeAChE) (Electrophorus electricus)
Checkbox rule: IC50 lower than 2000 µM = class 1; IC50 not lower than 2000 µM = class 0.

See these solved cases before continuing.
INSERT INTO measurements (record_smiles, class_assignment) VALUES
  ('Cc1ncc(COCc2cn(Cc3cccc(C(F)(F)F)c3)nn2)c(CO)c1O', 'class 0'),
  ('Cc1ccc(Cn2cc(COCc3cnc(C)c(O)c3CO)nn2)cc1', 'class 0'),
  ('Cc1ncc(COCc2cn(Cc3cccc(F)c3)nn2)c(CO)c1O', 'class 1'),
  ('Cc1ncc(COCc2cn(Cc3ccc(F)cc3)nn2)c(CO)c1O', 'class 0'),
  ('Cc1ccccc1Cn1cc(COCc2cnc(C)c(O)c2CO)nn1', 'class 1');

Is 2000 µM strictly greater than the molecule's reported IC50? molecule: Cc1ncc(COCc2cn(Cc3cccc(Br)c3)nn2)c(CO)c1O
class 1

Is 2000 µM strictly greater than the molecule's reported IC50? molecule: Cc1cccc(Cn2cc(COCc3cnc(C)c(O)c3CO)nn2)c1
class 1

Is 2000 µM strictly greater than the molecule's reported IC50? molecule: Cc1ncc(COCc2cn(Cc3cccc(Cl)c3)nn2)c(CO)c1O
class 0

Is 2000 µM strictly greater than the molecule's reported IC50? molecule: COc1cccc(Cn2cc(COCc3cnc(C)c(O)c3CO)nn2)c1
class 0

Is 2000 µM strictly greater than the molecule's reported IC50? molecule: Cc1ncc(COCc2cn(Cc3ccc(C(F)(F)F)cc3)nn2)c(CO)c1O
class 0

* * *

The entries below come with measured ORAC index ± SEM values attached.
# ASSAY NAME: Antioxidant assay, ORAC-FL method
# ASSAY CONTEXT: compound and Trolox at 8 μM, 37 °C, three independent experiments
Answers without a unit are incomplete; give the number and then its unit.

Some solved entries appear below for comparison.
INSERT INTO assay_data (molecule, assay_result) VALUES
  ('Cc1ncc(COCc2cn(Cc3cccc(Br)c3)nn2)c(CO)c1O', '2.2079 Trolox equivalents'),
  ('COc1cccc(Cn2cc(COCc3cnc(C)c(O)c3CO)nn2)c1', '1.8862 Trolox equivalents');

Next:
Any idea what its ORAC index ± SEM is? The molecule is Cc1ncc(COCc2cn(Cc3ccc(F)cc3)nn2)c(CO)c1O
1.4489 Trolox equivalents

* * *

The entries below come with measured inhibition at 5000 µM values attached.
# SUBJECT OF TEST: UniProt:O42275
# ASSAY NAME: In vitro AChE inhibition, modified Ellman's method
# Format: biochemical
# ASSAY CONTEXT: read-out: % of AChE inhibition
Note: unit % is implicit; provide only the numeric part.

Any idea what its inhibition at 5000 µM is? The molecule is Cc1ccccc1Cn1cc(COCc2cnc(C)c(O)c2CO)nn1
81.3

Any idea what its inhibition at 5000 µM is? The molecule is Cc1ncc(COCc2cn(Cc3cccc(Br)c3)nn2)c(CO)c1O
75.9

Any idea what its inhibition at 5000 µM is? The molecule is Cc1ncc(COCc2cn(Cc3ccccc3C(F)(F)F)nn2)c(CO)c1O
73.4

Any idea what its inhibition at 5000 µM is? The molecule is Cc1ncc(COCc2cn(Cc3cccc(F)c3)nn2)c(CO)c1O
66.6
